Tested on: BEAS-2B
Experiment: Cytotoxicity against human BEAS2B cells assessed as reduction in cell viability after 48 hrs by Resazurin dye-based assay
Details: Homo sapiens, BEAS-2B
pIC50: −log10 of the molar value.
Outcome label depends on pIC50 relative to 4: at/above gives satisfied, below gives not satisfied.

SMILES INPUT: O=C1/C(=C/c2ccc(C3CCCCC3)cc2)Oc2cc(O)cc(O)c21
CLASS ASSIGNMENT: satisfied
--
SMILES INPUT: O=C1/C(=C/c2ccccc2)Oc2cc(O)cc(O)c21
CLASS ASSIGNMENT: not satisfied
--
SMILES INPUT: COc1cc(/C=C2\Oc3cc(O)cc(O)c3C2=O)ccc1OCc1ccccc1
CLASS ASSIGNMENT: not satisfied
--
SMILES INPUT: O=C1/C(=C/c2ccc(F)cc2)Oc2cc(O)cc(O)c21
CLASS ASSIGNMENT: not satisfied
